Exercise: for every item that follows, state its recorded Cell Binding (FOB).
TGT: T1, human CD39 on cells (human, UniProt P49961 1-510)
T1 construct: One molecule for all cells that carry human CD39; the cell is named under assay; also called hCD39; cellular CD39
T1 sequence: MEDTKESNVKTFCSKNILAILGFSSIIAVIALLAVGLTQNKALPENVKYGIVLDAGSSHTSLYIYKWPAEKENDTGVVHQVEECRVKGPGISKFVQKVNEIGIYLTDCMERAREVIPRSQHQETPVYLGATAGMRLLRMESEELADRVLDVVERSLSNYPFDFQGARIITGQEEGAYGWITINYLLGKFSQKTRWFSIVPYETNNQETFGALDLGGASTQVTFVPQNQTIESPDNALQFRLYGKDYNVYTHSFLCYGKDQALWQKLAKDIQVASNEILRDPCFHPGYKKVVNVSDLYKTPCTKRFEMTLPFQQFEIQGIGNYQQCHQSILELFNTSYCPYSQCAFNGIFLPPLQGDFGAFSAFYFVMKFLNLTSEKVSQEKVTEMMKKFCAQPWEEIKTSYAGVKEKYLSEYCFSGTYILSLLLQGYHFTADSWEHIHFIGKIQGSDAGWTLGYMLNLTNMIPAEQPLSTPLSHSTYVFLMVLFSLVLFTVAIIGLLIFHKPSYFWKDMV
PROCEDURE_DETAILS: flow cytometry, 100 nM IgG, hCD39-CHO cells; MFI ratio to parental CHO
Experimental: 100 nanomolar IgGs (each antibody is indicated as a unique clone number in the FIG.) were incubated at […] 30 minutes on ice in phosphate buffered saline (PBS) with parental CHO cells or CHO cells engineered to express either human or cynomolgus macaque (Macaca fascicularis) CD39 (CHO CD39 cells). Cells were then washed with ice cold PBS and incubated with a fluorescently labeled goat-anti-human IgG for 20 minutes on ice. […]
One number for each entry, in FOB.

Answered examples (2):
{"columns": ["BINDER", "READING_UNIT", "OBSERVED"],
 "data": [
  ["31418 (antibody, V domains shown) VH: QVQLVQSGAEVKKPGASVKVSCKASGYTFKSYEMHWVRQAPGQGLEWMGRINPSGGSTWYAQKFQGRVTMTRDTSTSTVYMELSSLRSEDTAVYYCARGKREGGTEYLRHWGQGTLVTVSS VL: EIVLTQSPGTLSLSPGERATLSCRASQSVSSSYLAWYQQKPGQAPRLLIYGASSRATGIPDRFSGSGSGTDFTLTISRLEPEDFAVYYCQQYYFYITFGGGTKVEIKR", "FOB", 1080],
  ["27568 (antibody, V domains shown) VH: QVQLVQSGAEVKKPGSSVKVPCKASGGTFSSYAISWVRQAPEQGLEWMGSIIPIFGTANYAQKFQGRVTITADESTSTAYMELSSLRSEDTAVYYCAGESGGYRDHKLDVWGQGTVVTVSS VL: EIVLTQSPATLSLSPGERATLSCRASQSVSSYLAWYQQKPGQAPRLLIYDASNRATGIPARFSGSGSGTDFTLTISSLEPEDFAVYYCQQSVFWPITFGGGTKVEIKR", "FOB", 267]
]}

Here is another binder to look at.
// returns reported Cell Binding (FOB) for input 27596 (antibody, V domains shown) VH: QVQLVQSGAEVKKPGSSVKVSCKASGGTFSSYAISWVRQAPGQGLEWMGGIIPIFGTANYAQKFQGRVTITADESTSTAYMELSSLRSEDTAVYYCARDPLGIRKHWFDPWGQGTLVTVSS VL: EIVMTQSPATLSLSPGERATLSCRASQSVSSYLAWYQQKPGQAPRLLIYDASNRATGIPARFSGSGSGTDFTLTISSLEPEDFAVYYCQQHTVWPITFGGGTKVEIKR
252
